Target: T1, soluble FGFR3c receptor protein (human, UniProt P22607 141-372)
T1 sequence: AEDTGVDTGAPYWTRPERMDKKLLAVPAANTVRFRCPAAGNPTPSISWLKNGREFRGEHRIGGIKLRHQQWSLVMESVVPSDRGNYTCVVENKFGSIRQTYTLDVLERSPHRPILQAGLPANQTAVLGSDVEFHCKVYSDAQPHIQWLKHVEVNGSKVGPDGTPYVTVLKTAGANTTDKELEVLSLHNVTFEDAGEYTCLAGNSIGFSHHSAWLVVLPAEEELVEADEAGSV
Experiment: BLI Octet RED96, antibody on anti-hIgG Fc tip
READOUT: kon (M⁻¹ s⁻¹)
Use M⁻¹ s⁻¹ as the unit, but write only the number.

IN: Entry under review: Ab90 (antibody, human IgG2, kappa, V domains shown, format in the assays not spelled out) VH: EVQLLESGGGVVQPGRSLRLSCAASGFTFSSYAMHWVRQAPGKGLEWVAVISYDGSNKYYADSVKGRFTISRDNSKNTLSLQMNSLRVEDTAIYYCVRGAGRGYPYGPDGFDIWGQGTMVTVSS VL: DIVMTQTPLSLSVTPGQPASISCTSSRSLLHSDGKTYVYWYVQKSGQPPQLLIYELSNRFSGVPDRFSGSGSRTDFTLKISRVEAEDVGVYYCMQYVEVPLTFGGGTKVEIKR . Reported kon?
OUT: 126000
